Tested on: RARa:RXR (NR concentration 270 nM, RXRa partner concentration 90 nM)
ASSAY SUMMARY: PBM binding z-score (relative to random genomic background probes); higher = stronger binding; sequences stand for … in GC…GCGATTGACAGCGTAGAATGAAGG
Outcome label depends on PBM binding z-score relative to 2: at/above gives 1, below gives 0.

Incoming: hey, is PBM binding z-score for this one >= 2? `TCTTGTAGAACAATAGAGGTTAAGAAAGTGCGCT`
Outgoing: 0

Incoming: hey, is PBM binding z-score for this one >= 2? `CGTCCAAGGTCAGCAGGTCTGTGAAAGCGACGTG`
Outgoing: 1

Incoming: hey, is PBM binding z-score for this one >= 2? `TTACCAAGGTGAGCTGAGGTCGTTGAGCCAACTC`
Outgoing: 1

Incoming: hey, is PBM binding z-score for this one >= 2? `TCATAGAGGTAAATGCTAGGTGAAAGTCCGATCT`
Outgoing: 0

Incoming: hey, is PBM binding z-score for this one >= 2? `GATACAGGTTCAGCTAGAGGCCAGAGTATGGAAA`
Outgoing: 0

Incoming: hey, is PBM binding z-score for this one >= 2? `CCTGCTAGCTCAATGGTCAGCTAAAGCAGCTCGC`
Outgoing: 0

* * *

Tested on: RXRa homodimer (NR concentration 180 nM)
ASSAY SUMMARY: PBM binding z-score (relative to random genomic background probes); higher = stronger binding; sequences stand for … in GC…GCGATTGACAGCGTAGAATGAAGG
VALUE KIND: PBM binding z-score
Quick one: just the number, no unit, thanks!

Entry `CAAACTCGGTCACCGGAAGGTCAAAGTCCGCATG` , PBM binding z-score reported as 4.82

Entry `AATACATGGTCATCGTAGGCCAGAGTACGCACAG` , PBM binding z-score reported as 0.994

Entry `TCTAGTTGGTCAAAGGGCACACACTCGAAATGCG` , PBM binding z-score reported as 2.62

Entry `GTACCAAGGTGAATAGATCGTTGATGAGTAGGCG` , PBM binding z-score reported as 0.634

Entry `TCTGCTAGGTCAGTTGGTCTGCTAACGAGCTGCC` , PBM binding z-score reported as 0.318

Entry `CCGAATGGGGCAAGGTTACCATAACGCACAGCCA` , PBM binding z-score reported as 1.39

Entry `TCTATTATTTGAAGGGCAACCGACGAGTCCGTTT` , PBM binding z-score reported as 0.997

Entry `ACTAGTTGGTCAGCTGAGGGCACACACAATTCGG` , PBM binding z-score reported as 0.707

Entry `ATCGAAAGGTCGAAGGTGAGTAGACCCACCCGAA` , PBM binding z-score reported as 5.53

Entry `TAGCCTAGGTCACGCGGGCCAGTATAGTGTCGGC` , PBM binding z-score reported as 4.2

Entry `ATATGTAGGTTAGCTGGGGTCACTCAGACTAGGC` , PBM binding z-score reported as 5.23

Entry `TCTCTTAGTTGAAGGGCAACCGACGAGTCCGTTT` , PBM binding z-score reported as 0.71

Entry `ATCTCTAGGAAAGACTCAGTTCAGTGAAGAACGC` , PBM binding z-score reported as -0.107

Entry `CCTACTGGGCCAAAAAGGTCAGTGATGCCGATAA` , PBM binding z-score reported as 2.87

Entry `ATCGAAAGGTCGATGAGGTGAGTATACACCGTTT` , PBM binding z-score reported as 3.56

Entry `CCTACTGGGCCAAAGGTCATCGATTCCAATGCTC` , PBM binding z-score reported as 7.08

Entry `TCTAGTTGGTCAAAGGTGACACACTCGAAATGCG` , PBM binding z-score reported as 3.06

Entry `CCTACTGGGCCTAAAAGGTCATTGATGCCGATAA` , PBM binding z-score reported as 4.91

Entry `GCAGACAGGTGAAACGCAGGTAACTAAGGGTGGC` , PBM binding z-score reported as 0.593

Entry `CCTTACGGGTCACTCCAGGTTATAGCTTCGGAGT` , PBM binding z-score reported as 4.42

Entry `AGAACGGGGGCACGCTGAGTTGATAGCAGAGTAG` , PBM binding z-score reported as 2.94

Entry `CCTACTGGGCCATCCGGTCATTGATATCAACGTT` , PBM binding z-score reported as 0.106

Entry `ATAATGAGGTTATTAAGATCAGGGAATTGCGGTC` , PBM binding z-score reported as 1.88

Entry `ATCTCTAGGTAAAGATCAGTGAAAGATCGATAGA` , PBM binding z-score reported as 0.257

Entry `CGTCAAAGTTCAACTAAGGTAACGTACAGCACGC` , PBM binding z-score reported as 5.14

Entry `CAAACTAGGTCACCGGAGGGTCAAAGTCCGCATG` , PBM binding z-score reported as 5.89

This collection of values is drawn from the supplement of paper PMC6555819.
